target: sGC α1/β1 heterodimer (Homo sapiens (Human), UniProt Q02108+Q02153); test: Cell-based sGC functional assay (cyclic GMP assay for sGC activator: CASA assay); conditions: inflection point, 4P fit; CHO-K1/sGC cells; read-out: IP
Sequence (Q02108 whole entry): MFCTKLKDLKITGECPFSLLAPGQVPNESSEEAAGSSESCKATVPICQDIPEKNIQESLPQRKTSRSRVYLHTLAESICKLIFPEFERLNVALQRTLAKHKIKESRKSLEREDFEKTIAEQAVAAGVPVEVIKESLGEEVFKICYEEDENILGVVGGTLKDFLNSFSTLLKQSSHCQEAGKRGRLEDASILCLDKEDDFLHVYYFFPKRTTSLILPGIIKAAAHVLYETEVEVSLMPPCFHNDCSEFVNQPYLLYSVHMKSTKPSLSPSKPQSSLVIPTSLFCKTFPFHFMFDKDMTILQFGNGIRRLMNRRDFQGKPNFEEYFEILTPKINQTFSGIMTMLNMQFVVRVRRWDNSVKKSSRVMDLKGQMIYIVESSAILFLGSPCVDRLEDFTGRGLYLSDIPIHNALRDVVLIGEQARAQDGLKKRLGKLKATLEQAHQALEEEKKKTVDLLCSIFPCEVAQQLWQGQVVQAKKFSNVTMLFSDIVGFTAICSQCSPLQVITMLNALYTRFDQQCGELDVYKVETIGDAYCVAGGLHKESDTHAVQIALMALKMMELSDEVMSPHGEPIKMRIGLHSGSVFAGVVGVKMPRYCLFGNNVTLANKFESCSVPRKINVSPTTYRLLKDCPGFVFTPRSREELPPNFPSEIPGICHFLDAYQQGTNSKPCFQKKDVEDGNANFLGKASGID
Sequence (Q02153 whole entry): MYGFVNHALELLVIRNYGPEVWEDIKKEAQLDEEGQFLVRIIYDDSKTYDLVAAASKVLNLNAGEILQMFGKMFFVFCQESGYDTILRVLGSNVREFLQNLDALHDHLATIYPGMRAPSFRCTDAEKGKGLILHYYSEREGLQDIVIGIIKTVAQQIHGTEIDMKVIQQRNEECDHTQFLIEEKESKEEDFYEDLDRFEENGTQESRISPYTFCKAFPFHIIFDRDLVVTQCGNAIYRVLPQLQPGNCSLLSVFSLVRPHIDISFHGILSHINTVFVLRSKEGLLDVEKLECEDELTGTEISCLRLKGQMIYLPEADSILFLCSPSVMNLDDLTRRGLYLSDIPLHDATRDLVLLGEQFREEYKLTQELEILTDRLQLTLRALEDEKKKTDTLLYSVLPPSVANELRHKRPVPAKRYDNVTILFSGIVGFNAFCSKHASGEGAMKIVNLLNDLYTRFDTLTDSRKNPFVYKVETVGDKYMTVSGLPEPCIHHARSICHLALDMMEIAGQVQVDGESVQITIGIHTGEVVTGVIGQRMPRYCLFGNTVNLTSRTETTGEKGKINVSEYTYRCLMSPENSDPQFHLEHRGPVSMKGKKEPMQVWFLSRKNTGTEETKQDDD
Each record is given satisfied if its reported EC50 is strictly below 800 nM. Records at or above 800 nM are given not satisfied.

Solved cases (5 shown):
COCCn1nc(-c2nc(N)c3c(n2)NC(=O)C3(C)c2cccc(CC(C)(C)C(=O)O)c2)c2ccc(Cl)cc21 (stereo not drawn) [Example 39B]
not satisfied
C[C@@]1(c2ccc(CCC(=O)NCc3nn[nH]n3)cc2)C(=O)Nc2nc(-c3nn(Cc4ccccc4F)c4ncccc34)nc(N)c21 [Example 108B]
not satisfied
CC(C)(Cn1cc(C2(C)C(=O)Nc3nc(-c4nn(CCC(F)(F)C(F)(F)F)c5ncccc45)nc(N)c32)cn1)C(=O)O (stereo not drawn) [Example 144A]
not satisfied
Cc1ccc(Cn2nc(-c3nc(N)c4c(n3)NC(=O)[C@@]4(C)c3ccc(CCC(=O)O)cc3)c3ccc(Cl)cc32)cc1 [Example 67B]
satisfied
CC(C)(Cc1ccc(C2(C)C(=O)Nc3nc(-c4nn(Cc5ccccc5F)c5cc(Cl)ccc45)nc(N)c32)nc1)C(=O)O (stereo not drawn) [Example 131B]
not satisfied

Say whether its EC50 is strictly beneath 800 nM. Entry: C[C@@]1(c2ccc(CCc3nn[nH]n3)cc2)C(=O)Nc2nc(-c3nn(Cc4ccccc4F)c4ncccc34)nc(N)c21 [Example 240B]
satisfied
